Test: Metabolic test of an active body (Compound A) in plasma after oral administration to beagle dogs
Assay type: in vivo
Settings: dog, plasma, 10 mg/kg, mean of three animals ± standard deviation, analyte Compound A, read-out: AUC0-48 (area under the time-concentration curve in plasma over 48 hours) of Compound A
Readout Kind: AUC(0-t) at 48 h (ng·h/mL)
Give just the numeric value; ng·h/mL need not be written.

Data request, read-out AUC(0-t) at 48 h, for N=C(N)c1ccc(N2CCN(C3CCN(CC(=O)O)CC3)CC2=O)cc1
3550

====

Assay: Metabolic test of an active body (Compound A) in plasma after oral administration to beagle dogs
Type: in vivo
Settings: dog, plasma, 10 mg/kg, mean of three animals ± standard deviation, analyte Compound A, read-out: Tmax (time to reach Cmax) of plasma Compound A
Readout Kind: Tmax (h)
Give just the numeric value; h need not be written.

Need Tmax, item N=C(N)c1ccc(N2CCN(C3CCN(CC(=O)O)CC3)CC2=O)cc1
1.7
